Origin of values: patent US20230148214A1

# System under test: LRRK2 WT (Homo sapiens, UniProt Q5S007)
# Construct: purchased Life Technologies PR8604B
# Sequence (Q5S007 whole entry): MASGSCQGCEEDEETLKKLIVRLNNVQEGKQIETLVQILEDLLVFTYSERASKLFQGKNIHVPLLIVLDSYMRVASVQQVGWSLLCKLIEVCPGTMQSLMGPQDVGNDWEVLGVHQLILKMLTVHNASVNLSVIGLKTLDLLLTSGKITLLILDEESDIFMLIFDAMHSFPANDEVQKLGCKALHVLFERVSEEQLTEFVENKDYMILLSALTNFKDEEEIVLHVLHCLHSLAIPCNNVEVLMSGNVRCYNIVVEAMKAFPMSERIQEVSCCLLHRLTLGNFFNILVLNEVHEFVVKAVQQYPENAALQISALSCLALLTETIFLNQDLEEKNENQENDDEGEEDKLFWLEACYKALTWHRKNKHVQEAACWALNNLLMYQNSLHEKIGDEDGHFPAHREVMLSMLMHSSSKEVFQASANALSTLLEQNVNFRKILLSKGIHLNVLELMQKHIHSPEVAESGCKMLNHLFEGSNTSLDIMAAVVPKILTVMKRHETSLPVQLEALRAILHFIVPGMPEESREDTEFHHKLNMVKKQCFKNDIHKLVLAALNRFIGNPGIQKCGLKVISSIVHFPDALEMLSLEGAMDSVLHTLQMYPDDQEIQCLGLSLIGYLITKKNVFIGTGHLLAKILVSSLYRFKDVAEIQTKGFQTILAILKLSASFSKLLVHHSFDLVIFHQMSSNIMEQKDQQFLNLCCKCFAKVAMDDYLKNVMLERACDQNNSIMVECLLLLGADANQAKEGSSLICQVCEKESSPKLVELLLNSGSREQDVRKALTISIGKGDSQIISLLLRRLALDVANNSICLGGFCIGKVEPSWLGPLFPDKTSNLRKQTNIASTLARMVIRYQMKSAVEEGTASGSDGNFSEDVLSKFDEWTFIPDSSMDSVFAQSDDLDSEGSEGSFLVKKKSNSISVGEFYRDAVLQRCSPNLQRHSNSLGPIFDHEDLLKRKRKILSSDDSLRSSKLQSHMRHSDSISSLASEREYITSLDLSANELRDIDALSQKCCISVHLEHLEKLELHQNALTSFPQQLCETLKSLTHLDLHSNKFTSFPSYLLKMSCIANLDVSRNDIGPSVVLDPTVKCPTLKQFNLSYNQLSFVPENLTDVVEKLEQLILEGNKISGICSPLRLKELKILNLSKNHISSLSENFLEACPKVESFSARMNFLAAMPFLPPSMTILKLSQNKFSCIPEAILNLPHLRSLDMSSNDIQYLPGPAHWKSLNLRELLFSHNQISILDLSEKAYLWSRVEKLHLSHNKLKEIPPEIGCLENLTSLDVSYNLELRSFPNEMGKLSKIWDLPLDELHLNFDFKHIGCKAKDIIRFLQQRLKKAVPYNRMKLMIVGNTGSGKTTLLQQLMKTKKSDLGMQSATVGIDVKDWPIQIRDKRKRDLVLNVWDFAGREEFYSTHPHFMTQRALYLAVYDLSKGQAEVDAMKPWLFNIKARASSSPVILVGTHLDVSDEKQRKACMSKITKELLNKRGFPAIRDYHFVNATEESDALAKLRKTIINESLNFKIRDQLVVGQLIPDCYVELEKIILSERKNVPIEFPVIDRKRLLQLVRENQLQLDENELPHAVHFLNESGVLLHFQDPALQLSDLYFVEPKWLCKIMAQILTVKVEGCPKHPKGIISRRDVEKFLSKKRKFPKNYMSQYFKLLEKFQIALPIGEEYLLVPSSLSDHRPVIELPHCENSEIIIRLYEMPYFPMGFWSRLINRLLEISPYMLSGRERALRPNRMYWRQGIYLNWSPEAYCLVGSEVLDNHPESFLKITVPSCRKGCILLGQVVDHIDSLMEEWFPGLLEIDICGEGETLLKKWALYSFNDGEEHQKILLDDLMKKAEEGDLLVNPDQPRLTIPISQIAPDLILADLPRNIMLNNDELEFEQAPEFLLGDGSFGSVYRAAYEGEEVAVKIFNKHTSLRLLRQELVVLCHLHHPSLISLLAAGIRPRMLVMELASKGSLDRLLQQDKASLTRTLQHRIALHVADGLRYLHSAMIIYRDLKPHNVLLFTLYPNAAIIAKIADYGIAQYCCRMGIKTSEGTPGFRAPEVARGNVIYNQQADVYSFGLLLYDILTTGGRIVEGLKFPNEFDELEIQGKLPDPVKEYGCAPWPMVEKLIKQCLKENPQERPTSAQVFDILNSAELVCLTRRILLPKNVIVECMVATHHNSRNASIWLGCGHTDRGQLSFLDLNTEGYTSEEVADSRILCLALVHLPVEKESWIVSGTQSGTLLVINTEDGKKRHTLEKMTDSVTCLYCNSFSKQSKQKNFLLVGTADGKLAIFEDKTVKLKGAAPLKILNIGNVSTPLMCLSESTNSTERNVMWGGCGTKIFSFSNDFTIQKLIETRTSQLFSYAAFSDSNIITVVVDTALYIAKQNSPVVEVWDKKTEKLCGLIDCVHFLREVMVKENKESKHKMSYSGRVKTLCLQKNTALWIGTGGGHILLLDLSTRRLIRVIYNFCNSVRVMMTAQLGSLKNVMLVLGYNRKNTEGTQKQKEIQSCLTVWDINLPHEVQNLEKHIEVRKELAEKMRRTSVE
# Protocol details: LRRK2 Kinase Activity Assay (LanthaScreen TR-FRET), wild type
# Format: biochemical
# Test conditions: recombinant wild type LRRK2, 25 μM ATP, 400 nM LRRKtide, 60 min; class symbols
pIC50: −log10 of the molar value.
Readout kind: pIC50

Record Cc1n[nH]c2ccc(N[C@H]3CCc4ccc(C#N)cc43)cc12 (single isomer, unassigned) [Example 130, enantiomer 2] . Reported pIC50: 6.00 to 7.00

Record N#Cc1ccc2c(c1)CCC[C@@H]2Nc1ccc2[nH]nc(C3=CCCCC3)c2c1 (single isomer, unassigned) . Reported pIC50: 5.00 to 6.00

Record COc1nc2c(c(C)c1C#N)CCC[C@@H]2Nc1ccc2[nH]nc(-c3cnco3)c2c1 (single isomer, unassigned) [Example 165, enantiomer 1] . Reported pIC50: 6.00 to 7.00

* * *

# System under test: LRRK2 WT (Homo sapiens, UniProt Q5S007)
# Construct: purchased Life Technologies PR8604B
# Protocol details: LRRK2 Kinase Activity Assay (LanthaScreen TR-FRET), wild type
# Type: biochemical
# Test conditions: recombinant wild type LRRK2, 25 μM ATP, 400 nM LRRKtide, 60 min; class symbols
pIC50: −log10 of the molar value.
For each of the molecules below, state its pIC50.

Record N#Cc1ccc2c(c1)CCC[C@@H]2Nc1ccc2[nH]nc(-c3cnoc3)c2c1 (single isomer, unassigned) [Example 6, enantiomer 2] . Reported pIC50: 6.00 to 7.00

Record N#Cc1ccc2c(c1)CCC[C@@H]2Nc1ccc2[nH]nc(C3=CCC4(CC3)OCCO4)c2c1 (single isomer, unassigned) [Example 87] . Reported pIC50: 5.00 to 6.00

Record N#Cc1cc(F)c2c(c1)CC[C@H]2Nc1ccc2[nH]nc(-c3cnco3)c2c1 (single isomer, unassigned) [Example 132, enantiomer 2] . Reported pIC50: > 7.00

Record N#Cc1cnc2c(c1)CCC[C@@H]2Nc1ccc2[nH]nc(Br)c2c1 (single isomer, unassigned) [Example 125, enantiomer 2] . Reported pIC50: 5.00 to 6.00

Record N#Cc1cc2c(cc1F)[C@@H](Nc1ccc3[nH]nc(-c4cnco4)c3c1)CC2 (single isomer, unassigned) [Example 25, enantiomer 2] . Reported pIC50: > 7.00

Record Cc1c(C#N)ccc2c1CC[C@H]2Nc1ccc2[nH]nc(-c3cnoc3)c2c1 (single isomer, unassigned) [Example 118, enantiomer 1] . Reported pIC50: > 7.00

Record N#Cc1c(F)cc2c(c1F)CC[C@@H]2Oc1ccc2[nH]nc(-c3cnco3)c2c1 (single isomer, unassigned) [Example 167, enantiomer 1] . Reported pIC50: 6.00 to 7.00
